- Test Protocol: Anti-austerity activity against human KLM-1 cells assessed as cell killing in nutrient deprived medium
- Assay type: functional
Measurement Kind: PC50
Report the figure along with its unit, number first.

Some molecules with recorded PC50:
>  <Molecule>
CC(C)=CCc1cc(-c2coc3cc(O)c(CC=C(C)C)c(O)c3c2=O)cc(O)c1O

>  <PC50>
0.9 µM

$$$$
>  <Molecule>
COc1cc(C[C@H]2C(=O)OC[C@@H]2Cc2ccc(OC)c(OC)c2)ccc1O [ARCTIGENIN]

>  <PC50>
0.8 µM

$$$$
>  <Molecule>
CC(C)=CCc1cc(-c2coc3c(CC=C(C)C)c(O)cc(O)c3c2=O)cc(O)c1O

>  <PC50>
10.1 µM

$$$$
>  <Molecule>
COc1c(O)cc(-c2coc3c(CC=C(C)C)c(O)cc(O)c3c2=O)cc1CC=C(C)C

>  <PC50>
1.6 µM

$$$$

*Q* Quickly give me recorded PC50 for CC(C)=CCc1cc(-c2coc3cc(O)c(CC=C(C)C)c(O)c3c2=O)ccc1O [LUPALBIGENIN]
*A* 1 µM

* * *

Assignment: determine reported PC50 for the given compounds.
- System: PANC-1
- Test Protocol: Anti-austerity activity against human PANC-1 cells assessed as cell killing in nutrient deprived medium
- Format: functional
Give bare numbers, in µM.

>  <Smiles Representation>
CC(C)=CCc1cc(-c2coc3cc(O)c(CC=C(C)C)c(O)c3c2=O)cc(O)c1O

>  <Measurement Kind>
PC50

>  <Recorded Measurement>
0.7

$$$$

Give me PC50 for each of these compounds, listed below.
1. CC(C)=CCc1cc(-c2coc3c(CC=C(C)C)c(O)cc(O)c3c2=O)cc(O)c1O
2. CC(C)=CCc1cc(-c2coc3cc(O)c(CC=C(C)C)c(O)c3c2=O)ccc1O
3. COc1c(O)cc(-c2coc3c(CC=C(C)C)c(O)cc(O)c3c2=O)cc1CC=C(C)C
4. COc1cc(C[C@H]2C(=O)OC[C@@H]2Cc2ccc(OC)c(OC)c2)ccc1O

*A*
[10, 1, 1, 0.7]

* * *

- Test system: MIA PaCa-2
- Test Protocol: Anti-austerity activity against human MIA PaCa-2 cells assessed as cell killing in nutrient deprived medium
- Format: functional
Answer each item with its documented PC50.
Numbers only, in µM.

Worked cases, PC50 given:
>  <Smiles Representation>
COc1cc(C[C@H]2C(=O)OC[C@@H]2Cc2ccc(OC)c(OC)c2)ccc1O

>  <Recorded Measurement>
1.9

$$$$
>  <Smiles Representation>
CC(C)=CCc1cc(-c2coc3c(CC=C(C)C)c(O)cc(O)c3c2=O)cc(O)c1O

>  <Recorded Measurement>
10.9

$$$$
>  <Smiles Representation>
CC(C)=CCc1cc(-c2coc3cc(O)c(CC=C(C)C)c(O)c3c2=O)cc(O)c1O

>  <Recorded Measurement>
0.8

$$$$
>  <Smiles Representation>
COc1c(O)cc(-c2coc3c(CC=C(C)C)c(O)cc(O)c3c2=O)cc1CC=C(C)C

>  <Recorded Measurement>
1.2

$$$$

*Q* Identify PC50 associated with the molecule CC(C)=CCc1cc(-c2coc3cc(O)c(CC=C(C)C)c(O)c3c2=O)ccc1O
*A* 1.3

* * *

- System: PSN1
- Test Protocol: Anti-austerity activity against human PSN1 cells assessed as cell killing in nutrient deprived medium
- Type: functional
Measurement Kind: PC50 (µM)
Answers are plain numbers, in µM.

Observe how each entry below is paired with its result.
>  <Smiles Representation>
CC(C)=CCc1cc(-c2coc3cc(O)c(CC=C(C)C)c(O)c3c2=O)ccc1O

>  <Recorded Measurement>
1.5

$$$$
>  <Smiles Representation>
CC(C)=CCc1cc(-c2coc3c(CC=C(C)C)c(O)cc(O)c3c2=O)cc(O)c1O

>  <Recorded Measurement>
10.2

$$$$

Please report PC50 for every entry that follows.
1. COc1c(O)cc(-c2coc3c(CC=C(C)C)c(O)cc(O)c3c2=O)cc1CC=C(C)C
2. CC(C)=CCc1cc(-c2coc3cc(O)c(CC=C(C)C)c(O)c3c2=O)cc(O)c1O
3. COc1cc(C[C@H]2C(=O)OC[C@@H]2Cc2ccc(OC)c(OC)c2)ccc1O

*A*
1: 1.8; 2: 0.7; 3: 0.7
